# assay_notes: Selectivity index, ratio of IC50 for cytotoxicity against rat 3T3 cells to IC50 for antitrypanosomal activity against Trypanosoma cruzi Tulahuen strain C2C4 amastigotes infected in rat 3T3 cells
# study_conditions: 3T3 cells
measured_metric: selectivity ratio

>  <molecule>
O=[N+]([O-])c1cn2c(n1)OC[C@H](OCc1ccc(-c3ccc(OC(F)(F)F)cc3Cl)cc1)C2

>  <selectivity ratio>
> 65

$$$$
>  <molecule>
CC1(COc2ccc(OC(F)(F)F)cc2)Cn2c(Br)cnc2O1 (centres undefined)

>  <selectivity ratio>
> 43

$$$$
>  <molecule>
CC1(COc2ccc(OC(F)(F)F)cc2)Cn2ccnc2O1 (centres undefined)

>  <selectivity ratio>
> 16

$$$$

Please give the measured selectivity ratio for this molecule: CC1(COc2ccc(OC(F)(F)F)cc2)Cn2nc([N+](=O)[O-])nc2O1 (centres undefined)
> 101
